# Test system: dystrophin deficient cardiomyocytes
# protocol details: High-throughput hypotonic stress cell viability (intracellular ATP) screen
# test settings: 384-well; 18 hours compound incubation, then 30 minutes at 12.5% normal osmolarity; CELLTITER-GLO; vs average of DMSO control wells; tested at 10^-8 to 10^-5 M, concentration not given
Counter-ions that a name gives are not always drawn.
Field 'label' (enum: YES / NO). Set to YES when Average of % viability is strictly under 200%; else NO.

These recorded examples may help you get a feel for the data.
- molecule: "CC(=O)O[C@H]1CC[C@@]2(C)[C@H](CC[C@@H]3[C@@H]2CC[C@]2(C)[C@@H](C4=CC(=O)OC4)[C@@H](OC(C)=O)C[C@]32O)C1 [GITOXIGENIN DIACETATE]"
  group label: "YES"
- molecule: "CC(=O)c1ccc2c(c1)N(CCCN(C)C)c1ccccc1S2 [ACEPROMAZINE MALEATE]"
  group label: "NO"
- molecule: "CN1C(=O)CC[C@H]1c1cccnc1"
  group label: "YES"
- molecule: "Nc1ccc(C(=O)NCC(=O)O)cc1"
  group label: "NO"
- molecule: "COCCOC(=O)C1=C(C)NC(C)=C(C(=O)OC(C)C)C1c1cccc([N+](=O)[O-])c1 (stereo not shown)"
  group label: "NO"

IN: Identify whether the molecule NC(=O)NO [HYDROXYUREA] records Average of % viability below 200%.
OUT: YES

IN: Identify whether the molecule C[C@@]12C(=O)OC(=O)[C@]1(C)[C@H]1CC[C@@H]2O1 records Average of % viability below 200%.
OUT: NO

IN: Identify whether the molecule O=C(O)C(O)C(O)C(=O)O.OCc1cccnc1 (stereo not shown) [NICOTINYL ALCOHOL TARTRATE] records Average of % viability below 200%.
OUT: NO

IN: Identify whether the molecule COc1cccc2c1C(=O)c1c(O)c3c(c(O)c1C2=O)C[C@@](O)(C(=O)CO)C[C@@H]3O[C@H]1C[C@H](N)[C@H](O)[C@H](C)O1 records Average of % viability below 200%.
OUT: NO

IN: Identify whether the molecule O=C1O[C@H]([C@@H](O)CO)C(O)=C1O records Average of % viability below 200%.
OUT: YES

IN: Identify whether the molecule COc1cc([C@@H]2c3cc4c(cc3[C@H](O)[C@H]3COC(=O)[C@H]23)OCO4)cc(OC)c1OC records Average of % viability below 200%.
OUT: YES

These entries and their values trace back to patent US11661583B2.
